All values here come from patent US12527755B2.

- test description: physchem
- measurement parameters: 25 °C, pH 7, aqueous buffer, thermodynamic from solid
outcome measure: solubility

(Q) Can you share its solubility? I mean this compound: CC(=O)Nc1ccc(O)cc1
(A) ~16 mg/mL

----------
- test description: physchem
- measurement parameters: 5 °C, pH 7, aqueous buffer, thermodynamic from solid
outcome measure: solubility

(Q) Give its solubility value. Item: CC(=O)Nc1ccc(O)cc1
(A) ~8860 µg/mL
